Molecular target: T1, human TIGIT over-expressed on cells (human, UniProt Q495A1 22-244)
T1 construct: also called CHO-K1/human TIGIT cells; CHO cells expressing human TIGIT
T1 sequence: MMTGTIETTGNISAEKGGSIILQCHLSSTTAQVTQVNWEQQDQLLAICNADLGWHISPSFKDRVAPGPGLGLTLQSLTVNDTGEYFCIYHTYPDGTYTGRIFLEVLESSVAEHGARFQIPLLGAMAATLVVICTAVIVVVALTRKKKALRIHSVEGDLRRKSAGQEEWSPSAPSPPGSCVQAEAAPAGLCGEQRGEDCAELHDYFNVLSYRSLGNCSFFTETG
Assay: FACS, CHO-K1 cells over-expressing human TIGIT
Entries and their Top (best-fit) values follow.
assay_readout: Top (best-fit)

[[record]]
binder = "64G1E9B4VH1.M1_VL1.M1 (antibody, human IgG1, V domains shown, Humanized antibody, variable domains fused with the constant region of human IgG1; also called 64G1VH1.M1_VL1.M1) VH: EVQLVQSGAEVKKPGSSVKVSCKASGYTFTEHVIHWVRQAPGQGLEWMGGFNPNHGGTIYNQIFRGRVTITADKSTSTAYMELSSLRSEDTAVYYCARAAKLLFAMDYWGQGTTVTVSS VL: DIQMTQSPSSLSASVGDRVTITCRASQHVSNAVVWYQQKPGKAPKLLIYSPSYRFTGVPSRFSGSGSGTDFTLTISSLQPEDFATYYCQQHYSTPWTFGGGTKVEIK"
reported_value = 24700

[[record]]
binder = "64G1E9B4 chimeric (antibody, V domains shown, also called 64G1 Chimeric) VH: EVQLQQSGPELVKPGASVKISCKTSGYTFTEHVIHWVKQSHGKSLEWIGGFNPNHDGTIYNQIFRGKATLTVDKSSSTAYMELRSLTSEDSAVYFCTRAAKLLFAMDYWGQGTSVTVSS VL: DIVMTQSHKFMSTSIGDRVSITCKASQHVSNAVVWYQQKPGQSPKLLIYSPSYRFTGVPDRFTGSGSGTDFTFTISSVQAEDLAVYYCQQHYSTPWTFGGGTKLEIK"
reported_value = 23400

[[record]]
binder = "100C4E7D11 chimeric (antibody, V domains shown, also called 100C4 Chimeric) VH: EVMLVESGGGLVKPGGSLKLSCAASGFTFSFYTMSWVRQTPEKRLEWVATISSGGGSTYYSDSVKGRFTISRDNAKNNLYLQMTSLRSEDTALYYCSRSLPVDYWGQGTTLTVSS VL: QIVLTQSPAIMSASLGERVTMTCTASSSVSSTYLHWYQQKPGSSPKLWIYSTSNLASGVPARFSGSGSGTSYSLTISSMEAEDAATYYCHLYHHSPYTFGGGTKLEIK"
reported_value = 25600

[[record]]
binder = "64G1E9B4VH1_VL1.M1 (antibody, human IgG1, V domains shown, Humanized antibody, variable domains fused with the constant region of human IgG1; also called 64G1VH1_VL1.M1) VH: EVQLVQSGAEVKKPGSSVKVSCKASGYTFTEHVIHWVRQAPGQGLEWMGGFNPNHDGTIYNQIFRGRVTITADKSTSTAYMELSSLRSEDTAVYYCARAAKLLFAMDYWGQGTTVTVSS VL: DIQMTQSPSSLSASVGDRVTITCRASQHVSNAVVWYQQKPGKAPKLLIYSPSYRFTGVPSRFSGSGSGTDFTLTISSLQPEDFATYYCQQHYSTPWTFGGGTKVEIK"
reported_value = 22900

